# System: MCF7
# test name: Cytotoxicity against human MCF7 cells assessed as cell growth inhibition at 50 uM after 48 hrs by SRB assay
# Type: functional
# setup conditions: MCF7, 48 h, read-out: GI
Given measured inhibition of growth at 50 µM, output MET if it is greater than or equal to 60% and NOT MET if not.

[[record]]
compound = "O=C(c1ccc2nc(NC(=O)C(F)(F)F)cn2c1)c1cc(C(F)(F)F)ccc1F"
class_label = "MET"

[[record]]
compound = "Cc1ccc(C(=O)c2ccc3nc(NC(=O)C(F)(F)F)cn3c2)cc1F"
class_label = "NOT MET"

[[record]]
compound = "O=C(Nc1cn2cc(I)ccc2n1)C(F)(F)F"
class_label = "NOT MET"

[[record]]
compound = "Cn1cnc2c(NCc3ccccc3)nc(NCCO)nc21"
class_label = "NOT MET"

[[record]]
compound = "Cn1cc(C(=O)c2ccc3nc(NC(=O)C(F)(F)F)cn3c2)c2ccccc21"
class_label = "MET"


Entry source: ChEMBL document CHEMBL1154874
